target: ITGB3; conditions: ASO; also: test concentration or dose not given here
These antisense oligonucleotides have a phosphorothioate backbone; sugars and methylation of C are not fully specified.
Each item that follows carries a reported remaining target (mRNA or protein) (fraction of control).
In your answer, state the number alone without any accompanying words.

Guide cases for remaining target (mRNA or protein) (fraction of control), answers given:
AGATGCTGGTACATCCCC: 0.4
GCATCCTTGCCAGTGTCC: 0.47
AGGCATCTGGGCAGGTGG: 0.9

Shifting focus to the sequence that follows.
Query :: I'm curious: which remaining target (mRNA or protein) (fraction of control) was measured for CATTCCTCCAGCCAATCT tested on ITGB3?
Result :: 0.6

###

target: ITGB3; settings: ASO
These antisense oligonucleotides have a phosphorothioate backbone; sugars and methylation of C are not fully specified.
READOUT KIND: remaining target (mRNA or protein) (fraction of control)

Guide cases for remaining target (mRNA or protein) (fraction of control), answers given:
ACATACTGACATTCTCCC: ≥ 1
GCCCCGAAGCCAATCCGC: ≥ 1

Shifting focus to the sequence that follows.
Query :: Name the reported remaining target (mRNA or protein) (fraction of control) value associated with the sequence GCCCATTGCTGGACATGC
Result :: ≥ 1

###

biological target: PCK2; details: ASO
These antisense oligonucleotides have a phosphorothioate backbone; sugars and methylation of C are not fully specified.
Each item that follows carries a reported remaining target (mRNA or protein) (fraction of control).

Query :: Name the reported remaining target (mRNA or protein) (fraction of control) value associated with the sequence GGACAGTCTTTGTGGGAAGG
Result :: ≥ 1

Query :: Name the reported remaining target (mRNA or protein) (fraction of control) value associated with the sequence GAGCTGCACCCCGATGCGGG
Result :: ≥ 1

Query :: Name the reported remaining target (mRNA or protein) (fraction of control) value associated with the sequence TTAAAATAGATAAGCATCTC
Result :: ≥ 1

Query :: Name the reported remaining target (mRNA or protein) (fraction of control) value associated with the sequence GGGCCTCCCAGGCTGGGTCC
Result :: ≥ 1

###

details: ASO
These antisense oligonucleotides have a phosphorothioate backbone; sugars and methylation of C are not fully specified.
READOUT KIND: remaining target (mRNA or protein) (fraction of control)

Guide cases for remaining target (mRNA or protein) (fraction of control), answers given:
ACAGATCCAGTGGCTTGT: ≥ 1
AGGGAATAAATACAAAAG: ≥ 1

Query :: Name the reported remaining target (mRNA or protein) (fraction of control) value associated with the sequence CGCCCGGCGGCTCTTTCT
Result :: ≥ 1

Query :: Name the reported remaining target (mRNA or protein) (fraction of control) value associated with the sequence CCCAGGCGGAGGTCGGCG
Result :: ≥ 1

###

target: REL; conditions: ASO
These antisense oligonucleotides have a phosphorothioate backbone; sugars and methylation of C are not fully specified.
hey, just use true if measured remaining target (mRNA or protein) (fraction of control) is less than 0.5, otherwise false

Worked set:
GAAGTCTTGGATTATCAG: false
AAACAGTAGTATTGGAAT: false
GTCTGCGTTCTTGTCCAA: false
TTTGCTTTATTGCCGTAA: false
AATGGATTGATTCCTGCC: false
TCTCTCACAACTGCATCA: false
TCATCGGCATTGTTGTAA: false
AATCCACTTGAGATGGGC: false
GAATGGTGGGATACCTTG: true
ACACGACAAATCCTTAAT: false

Query :: Determine if ATGCTGCCTGCTGATCGC shows remaining target (mRNA or protein) (fraction of control) strictly lower than 0.5.
Result :: true

Query :: Determine if CCATATAAATCTGCTGAT shows remaining target (mRNA or protein) (fraction of control) strictly lower than 0.5.
Result :: false

###

biological target: SMAD3; conditions: ASO
These antisense oligonucleotides have a phosphorothioate backbone; sugars and methylation of C are not fully specified.
hey, just use 1 if measured remaining target (mRNA or protein) (fraction of control) is less than 0.5, otherwise 0

Worked set:
ACAGGCGGCAGTAGATGA: 0
TCTTGAGTTTCTTGACCA: 0
GGGTCGGTGAAGCCATCC: 0

Query :: Determine if GGGAAGTTAGTGTTTTCG shows remaining target (mRNA or protein) (fraction of control) strictly lower than 0.5.
Result :: 0

Query :: Determine if TTCTTCCAGCCCAGCAGG shows remaining target (mRNA or protein) (fraction of control) strictly lower than 0.5.
Result :: 0

Query :: Determine if CCAAGTTATTATGTGCTG shows remaining target (mRNA or protein) (fraction of control) strictly lower than 0.5.
Result :: 0

Query :: Determine if GAACTCCTGGTTGTTGAA shows remaining target (mRNA or protein) (fraction of control) strictly lower than 0.5.
Result :: 0

Query :: Determine if GCCTTCTCGCACCATTTC shows remaining target (mRNA or protein) (fraction of control) strictly lower than 0.5.
Result :: 0

Query :: Determine if CTCTCTGGTAGTGGTAGG shows remaining target (mRNA or protein) (fraction of control) strictly lower than 0.5.
Result :: 0

Query :: Determine if GCGCTGGTTACAGTTGGG shows remaining target (mRNA or protein) (fraction of control) strictly lower than 0.5.
Result :: 0

Query :: Determine if AGACCAAATGCCATCCCA shows remaining target (mRNA or protein) (fraction of control) strictly lower than 0.5.
Result :: 1

Query :: Determine if CTTCCGATGTGTCTCCGT shows remaining target (mRNA or protein) (fraction of control) strictly lower than 0.5.
Result :: 1

Query :: Determine if TGCAGGTCCAAGTTATTA shows remaining target (mRNA or protein) (fraction of control) strictly lower than 0.5.
Result :: 0

Query :: Determine if GAACACGCACCTCCCAAT shows remaining target (mRNA or protein) (fraction of control) strictly lower than 0.5.
Result :: 1

Query :: Determine if GCGTGGCACCAACACAGG shows remaining target (mRNA or protein) (fraction of control) strictly lower than 0.5.
Result :: 0

Query :: Determine if CTCCCCAGCCTTTGACGA shows remaining target (mRNA or protein) (fraction of control) strictly lower than 0.5.
Result :: 0

Query :: Determine if GGCTGTAGTCGTCCAGTG shows remaining target (mRNA or protein) (fraction of control) strictly lower than 0.5.
Result :: 0

Query :: Determine if TGCCCGTTCTGCTCGCCC shows remaining target (mRNA or protein) (fraction of control) strictly lower than 0.5.
Result :: 0

Query :: Determine if TTAAGCCACCAGAGCAGA shows remaining target (mRNA or protein) (fraction of control) strictly lower than 0.5.
Result :: 0

###

target: GNA12; conditions: ASO
These antisense oligonucleotides have a phosphorothioate backbone; sugars and methylation of C are not fully specified.
READOUT KIND: remaining target (mRNA or protein) (fraction of control)

Guide cases for remaining target (mRNA or protein) (fraction of control), answers given:
GTGGACTTGCCGCTCTCG: ≥ 1
CGAAGGCCATCAGGAACA: ≥ 1
GCTCACGGTCTTCACCTT: ≥ 1
CTGGAGGAGACCATGAAC: ≥ 1

Query :: Name the reported remaining target (mRNA or protein) (fraction of control) value associated with the sequence CTGAGGGTCCGCACCACC
Result :: ≥ 1

Query :: Name the reported remaining target (mRNA or protein) (fraction of control) value associated with the sequence ACTGCCAAGGAATGCCAA
Result :: ≥ 1

Query :: Name the reported remaining target (mRNA or protein) (fraction of control) value associated with the sequence GAAGCGGACGTTCTCGGT
Result :: ≥ 1

Query :: Name the reported remaining target (mRNA or protein) (fraction of control) value associated with the sequence GGAAGAGAATGATGGAGA
Result :: ≥ 1

###

target: RIPK1; conditions: ASO
These antisense oligonucleotides have a phosphorothioate backbone; sugars and methylation of C are not fully specified.
hey, just use met if measured remaining target (mRNA or protein) (fraction of control) is less than 0.8, otherwise not met

Worked set:
CTGTGGCTGAATTTGACC: not met
TTAAACTCTTCACGTCCT: not met
AAAAGGGTCATGGGAGAC: not met
CAATGATTTCCCAAATTA: not met
CCATGTAGTAGAGGGTGC: not met

Query :: Determine if ATTTTATAGATTCATCTG shows remaining target (mRNA or protein) (fraction of control) strictly lower than 0.8.
Result :: not met

###

biological target: Agtr1a (rat); settings: ASO
These antisense oligonucleotides have a phosphorothioate backbone; sugars and methylation of C are not fully specified.
READOUT KIND: remaining target (mRNA or protein) (fraction of control)

Guide cases for remaining target (mRNA or protein) (fraction of control), answers given:
GTGATGGGCATGGCAGTGTC: 0.29
GCAGAAGAGTTAAGGGCCAT: 0.32

Query :: I'm curious: which remaining target (mRNA or protein) (fraction of control) was measured for GGGTTCAGGCAGTTGTTAAA tested on Agtr1a (rat)?
Result :: 0.29

Query :: I'm curious: which remaining target (mRNA or protein) (fraction of control) was measured for GATGGTGATGGGCATGGCAG tested on Agtr1a (rat)?
Result :: 0.32

Query :: I'm curious: which remaining target (mRNA or protein) (fraction of control) was measured for AGCGTCGAATTCCGAGACTC tested on Agtr1a (rat)?
Result :: 0.29

Query :: I'm curious: which remaining target (mRNA or protein) (fraction of control) was measured for AGACACGTGTGAAGGAACAC tested on Agtr1a (rat)?
Result :: 0.5

src = the OligoGym collection
